// provenance: patent US12331264B2

Assay: physchem
Settings: pH 3
# pKa per entry

molecule	pKa
CC(C)CCC[C@@H](C)[C@H]1CCC2[C@@H]3CC=C4CC(SSCCCN(C)C)CC[C@]4(C)[C@H]3CC[C@@]21C (some centres unmarked) [Compound 35]	6 to 7
CC(C)CCC[C@@H](C)[C@H]1CCC2[C@@H]3CC=C4CC(SSCCCCN(C)C)CC[C@]4(C)[C@H]3CC[C@@]21C (some centres unmarked) [Compound 36]	6 to 7

---

Assay: Accelerated oxidation of ICLs with H2O2/Fe(III)Cl, UHPLC-CAD
Type: physicochemical
Conditions: Table 14; ICL lipid suspensions, 1% H2O2/100 μM Fe(III)Cl, 37° C., 24 h

molecule	% of parent lipid peak at time 0, 24 h [%]
CCCCC/C=C\CCCC/C=C\CCCCCC1(CCCCC/C=C\CCCC/C=C\CCCCC)OC[C@H](CCCN(C)C)O1	83
CCCCC/C=C\CCCC/C=C\CCCCC(=O)OC[C@H](CCN(C)C)OC(=O)CCCC/C=C\CCCC/C=C\CCCCC	78
CCCCC/C=C\C/C=C\CCCCCCCCC1(CCCCCCCC/C=C\C/C=C\CCCCC)OCC(CCN(C)C)O1 (stereo not drawn)	35
CCCCC/C=C\C/C=C\CCCCCCCC(=O)OC[C@H](CCN(C)C)OC(=O)CCCCCCC/C=C\C/C=C\CCCCC	31
CCCCC/C=C\C/C=C\CCCCCCCCC1(CCCCCCCC/C=C\C/C=C\CCCCC)OCC(CCCN(C)C)O1 (stereo not drawn)	46
CCCCC/C=C\CCCC/C=C\CCCCCC1(CCCCC/C=C\CCCC/C=C\CCCCC)OC[C@H](CCN(C)C)O1	91
